SUBJECT OF TEST: LgTrip 3546 (with His tag; SEQ ID NO: 51)
Sequence (chain, as listed by the source): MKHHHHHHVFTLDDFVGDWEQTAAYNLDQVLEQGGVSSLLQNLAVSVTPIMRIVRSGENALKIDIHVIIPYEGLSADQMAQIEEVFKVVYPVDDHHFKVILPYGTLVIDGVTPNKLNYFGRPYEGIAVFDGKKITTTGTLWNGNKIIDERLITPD
METHOD DESCRIPTION: luminescence complementation; SmTrip9 Kd
STUDY CONDITIONS: modification not given
MEASUREMENT NAME: pKd
FYI, pKd means -log10 of a concentration in mol per litre.

q: Endpoint output: pKd of DKLLFTVTIQKWK [756] . Value?
a: 6.32
